Data provenance is PubChem BioAssay (NCI).

We begin with a simple list: items and their reported TGI.
test system: NCI-H522 lung; assay: NCI tumour cell line growth inhibition, 48 h
PROPERTY LABEL: TGI (µM)

INSERT INTO assay_data (compound, value_modifier, result_number) VALUES
  ('C=CCN1C(=O)/C(=C/c2cccs2)N=C1SC1OC(COC(=O)c2ccccc2)C(OC(=O)c2ccccc2)C1OC(=O)c1ccccc1 (stereo not given)', '=', 28),
  ('CCOc1cc2ncc(C#N)c(Nc3ccc(F)c(Cl)c3)c2cc1NC(=O)/C=C/CN(C)C', '=', 0.732),
  ('CSc1nc(-c2cc3c(c(SC)n2)CCC3)cc2c1CCC2', '>', 100),
  ('CC(C)(C)OC(=O)/C=C/C(=O)O/C=C/[N+](=O)[O-]', '>', 100),
  ('CCN(CC)C(=S)N/N=C(\C)c1ccccc1O', '=', 33),
  ('COc1ccc(C2=C(c3cn(C)c4ccccc34)C(=O)NC2=O)cc1OC', '>', 21.9),
  ('Nc1ncc(-c2ccc(C(F)(F)F)cc2)c(NC2CCCCCC2)n1', '>', 100),
  ('COc1ccc(NC(C)=O)c(C(=O)CCNC(C)=O)c1', '>', 100),
  ('Cc1[nH]n(-c2nc(O)c(C)c(=O)[nH]2)c(=O)c1CCO', '>', 100),
  ('CC(=O)O/C(=C(/C#N)C(=O)O)C1C(C(=O)O)C(c2ccccc2[N+](=O)[O-])C=C(c2ccco2)N1c1ccncc1 (stereo not given)', '=', 11.3);
